The values you see were collected from the supplement of paper PMC11451515.

system: P12-Ichikawa; experiment: AUC of viability dose-response curve (% viability x log10 dose units); higher = less sensitive; settings: HPLM + 10% dialyzed FBS; 48 h
value_kind: AUC of viability dose-response curve
The reply should be a number, written without any unit.

# annotated cases, reported AUC of viability dose-response curve shown
compound	AUC of viability dose-response curve
COc1c(Cl)cc2c([nH]c3cnccc32)c1NC(=O)c1cccnc1C	462
NC(=O)c1cnccn1	463
O=C1NC(=O)/C(=C/c2ccc3nccnc3c2)S1	464

Please examine the following record next.
The reported AUC of viability dose-response curve of the compound "Cc1cn2cc(C(=O)N(C)CCO)cc(N[C@@H]3CCOc4cccc(C)c43)c2n1" was 465

---

Measured cell viability values are reported for all entries that follow.
test system: SEM cells; assay: cell viability relative to DMSO control; higher = less cytotoxic; settings: RPMI 5 mM glucose + 10% FBS; 48 h; 0.19 µM
Respond numerically; units are % and should not be typed.

In [3]: df
Out[3]:
                                   molecule      value_kind  readout_value
0            CCCCc1ccc2[nH]c(NC(=O)OC)nc2c1  cell viability           16.4
1          CCCCCCNC(=O)N1\C=C(F)/C(=O)NC1=O  cell viability            117
2  CC(=O)N(C)C1(c2ccccc2)CCN(CCC[C@]2(c3ccc(Cl)c(Cl)c3)CCCN(C(=O)c3ccccc3)C2)CC1  cell viability            123
3                            NC(=O)c1cnccn1  cell viability            129
4  COC1=CC=C(C=C1)/C2=C(O)/C(=O)C3=C(O)C=C(O)C(=C3O2)CC=C(C)C  cell viability            100

The reported cell viability of the molecule C[C@]12CCC3c4ccc(O)cc4CCC3C1CCC2=O (stereo partly specified) was 106

---

test system: SEM cells; test: cell viability relative to DMSO control; higher = less cytotoxic; conditions: RPMI 5 mM glucose + 10% dialyzed FBS; 48 h; 0.0211 µM
value_kind: cell viability (%)
Respond numerically; units are % and should not be typed.

# annotated cases, reported cell viability shown
                                   compound  readout_value
0  NC(=O)c1cccc(-c2cc(Nc3ccc(OC(F)(F)F)cc3)ncn2)c1           91.8
1  Cc1cn2cc(C(=O)N(C)CCO)cc(N[C@@H]3CCOc4cccc(C)c43)c2n1            110
2  COc1ccccc1[C@H](c1cccc2ccccc12)[C@@](C)(C#N)C(=O)N1CCC(c2cccc(C(F)(F)F)c2)CC1           99.4
3         O=C(O)c1ccc(O)c2ncc(N3CCOCC3)cc12           99.6
4  CC1(COc2ccc3c(c2)ncn3-c2ccc3cccc(N4CCC(N)CC4)c3n2)COC1           59.6
5  CN(C)CCCC1(c2ccc(F)cc2)OCc2cc(C#N)ccc21 (stereo not given)            108
6  CCN(CC)CCNC(=O)c1c(C)[nH]c(/C=C2\C(=O)Nc3ccc(F)cc32)c1C           44.5
7  Nc1nc(F)nc2c1ncn2[C@@H]1O[C@H](COP(=O)(O)O)[C@@H](O)[C@@H]1O           98.2

The compound "CCCOc1ccc(C(=O)OCCN(CC)CC)cc1N" on SEM cells: cell viability was 104

The compound "O=C(O)c1cc(O)c2c(c1)C(=O)c1cccc(O)c1C2=O" on SEM cells: cell viability was 117
